# study target: human NOX4 (Homo sapiens, UniProt Q9NPH5)
# Construct: expressed in transfected cells; membrane fraction used
# Sequence (Q9NPH5 whole entry): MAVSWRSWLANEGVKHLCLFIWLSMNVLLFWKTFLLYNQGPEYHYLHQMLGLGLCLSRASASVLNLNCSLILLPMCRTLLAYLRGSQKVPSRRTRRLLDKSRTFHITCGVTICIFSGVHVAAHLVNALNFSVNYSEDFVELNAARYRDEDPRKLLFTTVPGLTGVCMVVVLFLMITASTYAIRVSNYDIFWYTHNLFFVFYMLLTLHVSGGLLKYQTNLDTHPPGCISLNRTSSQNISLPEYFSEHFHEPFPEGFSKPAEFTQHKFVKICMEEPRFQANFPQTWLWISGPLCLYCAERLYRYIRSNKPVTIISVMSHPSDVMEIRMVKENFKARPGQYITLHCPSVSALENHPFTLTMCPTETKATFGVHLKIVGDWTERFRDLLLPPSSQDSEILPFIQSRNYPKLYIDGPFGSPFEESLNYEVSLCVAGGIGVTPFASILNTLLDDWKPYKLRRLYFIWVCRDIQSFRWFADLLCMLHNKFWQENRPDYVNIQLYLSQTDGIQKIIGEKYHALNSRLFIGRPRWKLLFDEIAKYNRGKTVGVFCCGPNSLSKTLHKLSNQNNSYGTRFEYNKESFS
# Sequence (P13498 whole entry partner): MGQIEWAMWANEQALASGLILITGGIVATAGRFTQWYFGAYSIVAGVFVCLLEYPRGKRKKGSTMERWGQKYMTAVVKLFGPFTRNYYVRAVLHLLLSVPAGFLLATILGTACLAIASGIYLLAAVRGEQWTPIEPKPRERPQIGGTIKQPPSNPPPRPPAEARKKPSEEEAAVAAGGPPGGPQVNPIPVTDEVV
# experiment description: Cell free membrane based in vitro NOX4 assay: H2O2 production by membranes expressing human NOX4, measured with Amplex Red
# Format: biochemical
# stated conditions: 1.0 μM compound, read-out: Percentage inhibition at 1.0 μM
Overview of recorded inhibition at 1 µM for various compounds
outcome measure: inhibition at 1 µM (%)

• CS(=O)(=O)N1CCC(c2nn(C3CC3)c3[nH]c(-c4c(F)cccc4F)c(O)c(=O)c23)CC1 = 71.9
• Cn1nc(C(F)(F)F)c2c(=O)c(O)c(-c3ccc(NS(C)(=O)=O)cc3F)[nH]c21 = 60.9
• Cc1nc2c(=O)c(O)c(-c3ccccc3Cl)[nH]c2s1 = 39
• Cn1nc(C(F)(F)F)c2c(=O)c(O)c(-c3ccc(F)cc3Cl)[nH]c21 = 84.6
• CCn1nc(C)c2c(=O)c(O)c(-c3ccc(F)c(C(F)(F)F)c3F)[nH]c21 = 78.6
• CCCn1nc(C)c2c(=O)c(O)c(-c3ccc(OC)cc3F)[nH]c21 = 87.5
• Cc1nn(CCN2CCOCC2)c2[nH]c(-c3ccccc3Cl)c(O)c(=O)c12 = 83.5
• Cc1nn(CCN2CCN(C)CC2)c2[nH]c(-c3cccc(C(F)(F)F)c3F)c(O)c(=O)c12 = 89

Cited source: patent US20200247800A1
